System: HL-60(TB) leukemia
ASSAY_SUMMARY: NCI-60 one-dose screen, 48 h
CONDITION_SUMMARY: 10 µM unless noted
The panel holds about 83,000 compounds, 20% with a hit somewhere; the sample as a whole holds those more often. Activity calls are given as the source filed them. Rule for the calls: active = growth percent below 10; inactive = the rest.
Parameter call: string, one of 1.0 (active), 0.0 (inactive)

Hi, do you know how `COc1ccc(/C=N\Nc2ccc([N+](=O)[O-])cn2)cc1OC` came out in this test?
0.0

Hi, do you know how `CN1CCN(c2ccc3nc(-c4ccc(OCCCCN5CCN(CCCCN6C(=O)c7cccc8cccc(c78)C6=O)CC5)cc4)[nH]c3c2)CC1` came out in this test?
0.0

Hi, do you know how `O=C(NNc1ccccc1)OCc1ccccc1` came out in this test?
1.0

Hi, do you know how `COc1ccc(/C=C/C(=C/c2c(O)[nH]c3cc(Br)ccc23)N=O)cc1` came out in this test?
0.0

Hi, do you know how `COc1ccc(-c2cc(-c3cn(-c4cccc(Cl)c4)nc3-c3ccc(OC)cc3)[nH]c(=S)n2)cc1` came out in this test?
0.0

Hi, do you know how `CCCCCCCCCCCC(=O)OCCNC(=O)C[n+]1ccccc1` came out in this test?
0.0

Hi, do you know how `OCCN(CCO)c1ccc2ccccc2c1` came out in this test?
0.0

Hi, do you know how CCOC(=O)C(C#N)Cc1ccccc1 (configuration not stated) came out in this test?
0.0

Hi, do you know how `CC(=O)Nc1ccc(/C=C/C(=O)c2ccccc2)cc1` came out in this test?
0.0

Hi, do you know how `COc1ccc(Nc2cc(C)nc(NCc3ccccc3)n2)cc1` came out in this test?
0.0

Hi, do you know how `CC(C)Sc1ncnc2nc[nH]c12` came out in this test?
0.0

Hi, do you know how `O=S(=O)(c1ccc(N/N=C\c2ccccc2)cc1)c1ccc(N/N=C/c2ccccc2)cc1` came out in this test?
0.0
